Measured diameter of the inhibition zone (DIZ) values are reported for all entries that follow.
system: Yamadazyma tenuis; experiment: Antifungal activity against Candida tenuis assessed as growth inhibition at 0.1% after 48 to 72 hr by agar disk diffusion method; type: functional
// note: answer is a bare numeric in mm

As a guide, the following entries are already answered.
> print(dat)
                           structure.string                       observation.type  measured.result
1    CCOC1=C(Sc2ccc(O)cc2)C(=O)c2ccccc2C1=O  diameter of the inhibition zone (DIZ)                0
2  O=C1C(SCc2ccc(Cl)cc2)=C(N2CCCCC2)C(=O)c2ccccc21  diameter of the inhibition zone (DIZ)                0
3  O=C1C(Sc2ccc(O)cc2)=C(Sc2ccc(O)cc2)C(=O)c2ccccc21  diameter of the inhibition zone (DIZ)                0
4  O=C1C(SCc2ccc(Cl)cc2)=C(N2CCOCC2)C(=O)c2ccccc21  diameter of the inhibition zone (DIZ)                0

Okay, now this compound:
Fill blank: measured diameter of the inhibition zone (DIZ) of the compound COC(=O)CCSC1=C(Cl)C(=O)c2ccccc2C1=O is ____. 12.4
